Below, each entry is listed with its recorded log10 of kcat.
B1: glmS ribozyme (parent)
chain: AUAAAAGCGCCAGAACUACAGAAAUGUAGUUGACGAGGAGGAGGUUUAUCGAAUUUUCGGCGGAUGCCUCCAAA

Variants of: B1
protocolDescription: kcat; higher = faster cleavage; RNA array
assaySetup: with glucosamine-6-phosphate
Fewer inactive variants are shown than the library holds.
For clarity, the numbers are log10 values of kcat expressed in s⁻¹.

Some entries whose results are on file:
Param item = "AUAAAAGCGCCAGAACUACAGAAAUGUAGUUGACGAGGAGGAGGUUUAUCGAUUUUUUGGCGGAUGCCUCCAAA" ; retrieve measured log10 of kcat.
-4.16

Moving on to the next variant: "AUAAAAGCGCCAGAACUACAGAAAUGUAGUUGACGAGGAGGACGUUUAUCGAAUUUUCGGCGGAUGCGUCCAAA"
-1.80

Moving on to the next variant: "AUAAAAGCGCCAGAACUACAGAAAUGUAGUAGACGAGGAGGAGGUUUAUCGAAUUUUCGGCGGAUGCUUCCAAA"
-2.84

Moving on to the next variant: "AUAAAAGCGCCAGAACUACAGAAAUGUAGUUGACGAGGAGGACGUUUAUCGAGUUUUCGGCGGAUGCUUCCAAA"
-2.82

Moving on to the next variant: "AUAAAACCGGCAGAACUACAGAAAUGUAGUUGACGAGGAGGAGGUUUAUCGAAUUUUCGGCGGAUGGCUCCAAA"
-4.73

Further cases:
Param item = "AUAAAAGCGCCAGGACUACAGAAAUGUAGUUGACGAGGAGGAGGUUUAUCGAAUUUUAGGCGGAUGCCUCCAAA" ; retrieve measured log10 of kcat.
-2.82

Moving on to the next variant: "AUAAAAGCGCCAGAACUACAGAAAUGUAGUUGACGAGGAGGAGGUUUAUUGAAUUUUCGGCGGAUGUCUCCAAA"
-4.62

Moving on to the next variant: "AUAAAAGCGCAAGAACUACAGAAAUGUAGAUGACGAGGAGGAGGUUUAUCGAAUUUUCGGCGGAUGCCUCCAAA"
-3.50

Ref: the supplement of paper PMC7125110
